System: hMSCs
procedure text: Alizarin red staining for calcium phosphate deposits (ECM mineralization, bone cell maturation)
Format: cell-based, human
condition parameters: OS treatment started three days after siRNA transfection and continued for 9 days (3+9OS), vs siCon
measurement name: intensity of alizarin red staining

INSERT INTO assay_data (substance, measurement_name, test_value) VALUES
  ('siP2RY11: siRNA UGCGGGUGCUCAACGUGGA targeting purinergic receptor P2Y, G-protein coupled, 11 (listed as RNA, chemistry not given here)', 'intensity of alizarin red staining', 'dramatically enhanced'),
  ('siADK: siRNA GCCACACAAAGCAGCAACA targeting adenosine kinase (listed as RNA, chemistry not given here)', 'intensity of alizarin red staining', 'dramatically enhanced'),
  ('siBCL212: siRNA CCCAGGUCUCCGAUGAACU targeting BCL2-like 2 (listed as RNA, chemistry not given here)', 'intensity of alizarin red staining', 'modest enhancement'),
  ('siDUSP6: siRNA CUGUGGUGUCUUGGUACAU targeting dual specificity phosphatase 6 (listed as RNA, chemistry not given here)', 'intensity of alizarin red staining', 'modest enhancement'),
  ('siSLC12a2: siRNA CCUCUUCGUGGCUACAUCU targeting solute carrier family 12, member 2 (listed as RNA, chemistry not given here)', 'intensity of alizarin red staining', 'dramatically enhanced');
